Please provide measured solubility kinetic for the entries that follow.
- measurement-parameters: buffer; pH 7.4; 6.0 h; 150.0 µM

COc1cncc(Nc2ncc(-c3cccc(N(C)C)c3)c3c2OCC3)c1    < 1 µg/mL
COc1ccc(/C=C2/C(=O)Nc3ccccc32)cc1O    29.2 µg/mL
COc1ccc(-c2noc(CSc3nnc(Cc4ccccc4)n3-c3ccc(F)cc3)n2)cc1    < 1 µg/mL

Look at each molecule and report its solubility kinetic.
1. O=C(Nc1ccc(Cl)cc1Cl)c1cnc2ccccc2n1
2. FC(F)(F)c1ccc(CN2CCNc3cc(Nc4ccccc4)ncc3C2)cc1
3. CC(C)CS(=O)(=O)c1oc(-c2ccc(F)cc2)nc1S(=O)(=O)c1ccccc1
4. O=C(Nc1nc2cc(C(F)(F)F)ccc2s1)c1ccc(-c2cccc([N+](=O)[O-])c2)o1
5. CCOc1ccccc1N(CC(=O)Nc1cc(OC)ccc1OC)S(=O)(=O)c1ccccc1
6. Fc1ccc(Nc2nc(-n3ccnc3)nc3ccccc23)cc1F
7. Cc1ccc(-c2cc(C(=O)Nc3ccc(-c4noc(=O)[nH]4)cc3)c3ccccc3n2)cc1C

output:
["< 1 µg/mL", "< 1 µg/mL", "< 1 µg/mL", "< 1 µg/mL", "< 1 µg/mL", "< 1 µg/mL", "1.39 µg/mL"]

###

- measurement-parameters: buffer; pH 7.4; 6.0 h; 150.0 µM
recorded-endpoint: solubility kinetic

Below are worked cases with known answers.
Cc1ccc(S(=O)(=O)Nc2ccc(OC(F)(F)F)cc2C(=O)Nc2nc(-c3ccccc3)cs2)cc1    < 1 µg/mL
CCCCNc1oc(-c2cccc3ccccc23)nc1C#N    < 1 µg/mL
COC(=N)c1nc2ccc3ncnc(Nc4ccc(F)cc4Br)c3c2s1    < 1 µg/mL
COc1cc(/C=C(\C#N)C(=O)c2ccc(O)c(O)c2)cc(I)c1O    50.3 µg/mL
CCOC(=O)c1ccc(NC2CCCCC2)c(N)c1    31 µg/mL
Cc1ccnc(NC(=S)N2CCN(c3ccc(C(F)(F)F)cc3)CC2)c1    < 1 µg/mL

Look at each compound and report its solubility kinetic.
1. COc1ccccc1Nc1ccnc(N2CCN(C(=O)c3ccc(C)cc3)CC2)n1
2. O=C1Nc2ccccc2/C1=C\c1cc(F)c(O)c(F)c1
3. Cc1ccc(S(=O)(=O)Nc2ccc(Cl)cc2C(=O)Nc2nc(-c3ccccc3)cs2)cc1
4. CC(C)Oc1ccc(C(=O)Nc2ccc3c(c2)CCCN3C(=O)c2cccs2)cc1
5. CC(C)CNc1ccnc(NCc2csc(-c3ccccc3)n2)n1

output:
1. 2.64 µg/mL
2. > 40 µg/mL
3. < 1 µg/mL
4. < 1 µg/mL
5. 35.9 µg/mL

Look at each compound and report its solubility kinetic.
1. CC1(C)CCC(CN2CCN(c3ccc(C(=O)NS(=O)(=O)c4ccc(NCC5CCOCC5)c([N+](=O)[O-])c4)c(Oc4cnc5[nH]ccc5c4)c3)CC2)=C(c2ccc(Cl)cc2)C1
2. COc1ccc(Cl)cc1C(=O)Nc1ccc(NC(=O)c2ccco2)cc1
3. O=C1CCCc2cc(S(=O)(=O)Nc3cnccc3C(=O)Nc3nc(-c4ccccc4)cs3)ccc2N1

output:
1: < 1 µg/mL; 2: < 1 µg/mL; 3: 62.9 µg/mL

Look at each compound and report its solubility kinetic.
1. COc1cc2c(Nc3ccc(Br)cc3F)ncnc2cc1OCC1CCN(C)CC1
2. OCCOCCN1CCN(C(c2ccccc2)c2ccc(Cl)cc2)CC1 (stereo unspecified)
3. Cc1ccc(-c2cc(C(=O)Nc3ncco3)c3ccccc3n2)cc1C
4. Nc1c(-c2ccncc2)cc[nH]c1=O
5. CCOc1ccc(CCNC(=O)c2cc3cnccc3n2Cc2cccc(C)c2)cc1OCC
6. COc1ccc(NC(=O)c2c(C)cccc2C)cc1[S+](=O)([O-])N1CCCCCC1
7. O=C(Nc1ccc(S(=O)(=O)Nc2nccs2)cc1)c1cccnc1

output:
1. > 70 µg/mL
2. > 55 µg/mL
3. 4.24 µg/mL
4. 11.8 µg/mL
5. > 68 µg/mL
6. 15.8 µg/mL
7. > 53 µg/mL
